# assay.system: HIV-1 NefNL4-3 (Human immunodeficiency virus type 1 group M subtype B, UniProt P03406, A33V/T15A/T51N/V11I)
# test.description: Surface plasmon resonance binding to recombinant full-length Nef (NL4-3)
# reported.conditions: Table 4; 1:1 Langmuir fit; T = 1/koff
measurement.kind: T, minutes (residence time) (E + 00 minutes)
Quick note: give the figure in E + 00 minutes, leave out the unit.

molecule	meas.value
CS(=O)(=O)N1CCC(c2nn(-c3nc4cc(Cl)ccc4[nH]3)c(O)c2CCC2CCOCC2)CC1	3.95

*Q* Look up T, minutes (residence time): Oc1c(CC2CCOCC2)c(-c2cccc(F)c2)nn1-c1nc2ccccc2[nH]1
*A* 6.46

*Q* Look up T, minutes (residence time): CC(=O)N1CCC(c2nn(-c3nc4cc(Cl)ccc4[nH]3)c(O)c2CCn2nccn2)CC1
*A* 7.61

*Q* Look up T, minutes (residence time): Oc1c(CCc2ccc(F)cc2)c(-c2ccc(C(F)(F)F)cn2)nn1-c1nc2cccnc2[nH]1
*A* 8.82

*Q* Look up T, minutes (residence time): CS(=O)(=O)N1CCC(Cc2c(-c3ccc(C(F)(F)F)cc3)nn(-c3nc4ccccc4[nH]3)c2O)CC1
*A* 3.62

*Q* Look up T, minutes (residence time): Cn1cccc(CCc2c(-c3ccc(C(F)(F)F)cc3)nn(-c3nc4ccccc4[nH]3)c2O)c1=O
*A* 5.36

*Q* Look up T, minutes (residence time): Cn1c(-n2nc(-c3cccc(S(C)(=O)=O)c3)c(CCc3ccc(F)cc3)c2O)nc2ccccc21
*A* 2.32
